Origin of values: ChEMBL document CHEMBL1201862

Target: Caspase-3 (Homo sapiens, UniProt P42574);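 further: Dose-response selectivity test against caspase-3 for candidate inhibitors of sentrin-specific proteases (SENPs)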
Sequence (P42574 29-175 limits assumed): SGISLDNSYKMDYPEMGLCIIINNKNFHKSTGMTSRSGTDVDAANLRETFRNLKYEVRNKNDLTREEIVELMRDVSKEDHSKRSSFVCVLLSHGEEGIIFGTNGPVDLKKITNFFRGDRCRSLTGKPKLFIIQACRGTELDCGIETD
Sequence (P42574 176-277 limits assumed): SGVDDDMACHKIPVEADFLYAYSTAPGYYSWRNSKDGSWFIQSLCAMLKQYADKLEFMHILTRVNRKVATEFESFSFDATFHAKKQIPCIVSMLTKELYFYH
Format: functional
Active and inactive are the calls of the source.
parameter: IC50

CC(=O)c1sc(Nc2nc3ccc(F)cc3s2)nc1C    18.8 µM (active)
CNC(=O)c1ccsc1NC(=O)c1ccc2c(c1)CCCC2    28.4 µM (active)
COc1ccc(-n2nc3cc(N)c(Br)cc3n2)cc1    13.3 µM (active)
Cc1ccc(OCc2nc(-c3cccs3)no2)c([N+](=O)[O-])c1    21.4 µM (active)
Cc1ccc(-c2noc(CSc3ccccc3)n2)cc1    25.5 µM (active)

For every listed record, write down its IC50.
1. COc1ccc(/C=C2/CCc3ccccc3C2=O)cc1OC
2. Cc1cc(C)c(O)c(-c2cc(C(=O)Nc3cccnc3)[nH]n2)c1

[A]
1. 32.2 µM (active)
2. 31.4 µM (active)

====

Give AC50 for every item shown.
Molecular target: Dual specificity tyrosine-phosphorylation-regulated kinase 1A (Rattus norvegicus, UniProt Q63470)
Assay type: biochemical, Homo sapiens
Calls of active or inactive are those of the source.

As a guide, the following entries are already answered.
COc1ccc(/C=C(/C(=O)c2cccs2)N2C=CC=CC2=C(C#N)C#N)cc1    8.18 µM (active)
COc1ccc(/C=C2\SC(N3CCCCC3)=NC2=O)cc1    0.308 µM (active)

For every listed record, write down its AC50.
1. O=C(Nc1ccccc1Cl)c1csc(-c2cccnc2)n1
2. Cc1nc(NC(=O)c2ccccc2)sc1-c1csc(N)n1
3. NS(=O)(=O)c1ccc(-c2ccc(/C=C3\NC(=S)NC3=O)o2)cc1
4. Cc1c2ccncc2c(C)c2c1[nH]c1ccccc12 [ELLIPTECINE]

[A]
["0.493 µM (active)", "1.26 µM (active)", "18.3 µM (active)", "0.231 µM (active)"]

====

Target: Serine/threonine-protein phosphatase (Candida dubliniensis (strain CD36 / CBS 7987 / NCPF 3949 / NRRLY-17841) (Yeast))
Sequence (B9W6M3 whole entry): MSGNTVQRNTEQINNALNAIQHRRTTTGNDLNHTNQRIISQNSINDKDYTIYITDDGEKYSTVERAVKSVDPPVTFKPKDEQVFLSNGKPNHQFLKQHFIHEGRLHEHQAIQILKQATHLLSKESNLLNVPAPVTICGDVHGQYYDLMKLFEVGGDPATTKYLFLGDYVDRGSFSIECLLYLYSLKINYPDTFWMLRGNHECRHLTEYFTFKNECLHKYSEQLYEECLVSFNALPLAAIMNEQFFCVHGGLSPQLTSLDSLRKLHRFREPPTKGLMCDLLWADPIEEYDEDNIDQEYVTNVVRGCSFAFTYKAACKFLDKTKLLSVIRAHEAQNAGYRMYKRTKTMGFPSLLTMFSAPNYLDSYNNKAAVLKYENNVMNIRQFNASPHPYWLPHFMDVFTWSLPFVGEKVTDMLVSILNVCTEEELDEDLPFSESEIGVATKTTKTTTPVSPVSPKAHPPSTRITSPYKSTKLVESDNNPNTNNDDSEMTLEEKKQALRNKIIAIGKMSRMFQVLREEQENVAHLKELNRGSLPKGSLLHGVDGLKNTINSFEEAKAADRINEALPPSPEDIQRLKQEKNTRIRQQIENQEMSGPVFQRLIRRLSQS
Assay: blockers of CaCl2-induced CDRE-lacZ signaling – S. cerevisiae, luminescence, secondary, dose response (AID 2388);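 further: yeast reporter cells carrying a calcineurin-responsive lacZ construct stimulated with calcium chloride; luminescent beta-galactosidase reporter signal in whole cells rather than isolated phosphatase activity; potency for inhibition where a drop in reporter signal means calcineurin blockade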
Format: functional, cell-based
Calls of active or inactive are those of the source.
parameter: EC50

As a guide, the following entries are already answered.
O=C(Nc1nnc(-c2ccncc2)o1)c1ccc2ccccc2c1    > 180 µM (inactive)
O=C(Nc1nnc(-c2ccco2)o1)c1cccc(Cl)c1    > 180 µM (inactive)
CCCCC(=O)NC(c1ccccc1)c1ccc2cccnc2c1O (centres undefined)    > 180 µM (inactive)

Switching to the query record.
[Q] Bench note: what EC50 did `CCOC(=O)Cc1csc(NC(=O)CSc2nnc(-c3ccncc3)o2)n1` show?
[A] > 180 µM (inactive)

====

Target: ATP-dependent molecular chaperone HSP82 (Candida albicans (strain WO-1) (Yeast), UniProt C4YTQ8)
Sequence (C4YTQ8 whole entry): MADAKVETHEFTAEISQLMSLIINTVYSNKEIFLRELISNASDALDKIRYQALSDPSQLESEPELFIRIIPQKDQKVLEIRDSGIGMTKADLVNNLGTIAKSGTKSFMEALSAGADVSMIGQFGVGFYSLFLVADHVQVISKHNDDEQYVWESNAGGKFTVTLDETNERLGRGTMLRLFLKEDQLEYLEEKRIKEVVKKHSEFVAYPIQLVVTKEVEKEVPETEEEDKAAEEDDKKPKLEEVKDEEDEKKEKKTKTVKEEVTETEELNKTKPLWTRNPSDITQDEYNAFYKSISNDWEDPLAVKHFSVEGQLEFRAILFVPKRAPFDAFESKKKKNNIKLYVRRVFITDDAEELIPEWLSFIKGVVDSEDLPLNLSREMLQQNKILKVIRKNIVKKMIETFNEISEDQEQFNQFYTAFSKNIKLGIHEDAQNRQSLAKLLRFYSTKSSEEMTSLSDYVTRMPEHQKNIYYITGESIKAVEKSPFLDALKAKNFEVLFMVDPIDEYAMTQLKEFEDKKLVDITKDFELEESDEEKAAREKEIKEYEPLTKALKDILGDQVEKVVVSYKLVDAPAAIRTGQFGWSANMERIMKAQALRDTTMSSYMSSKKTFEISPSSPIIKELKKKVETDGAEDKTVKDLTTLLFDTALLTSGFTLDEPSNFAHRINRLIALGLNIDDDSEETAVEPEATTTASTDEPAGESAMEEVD
Assay: steroid-induced GRE reporter decrease in yeast – S. cerevisiae, luminescence, Hsp90 inhibitor project, dose response (AID 2400);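 further: beta-galactosidase luminescence from glucocorticoid response element reporter as proxy for Hsp90 function; inhibitor potency where signal loss means Hsp90 inhibition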
Format: functional, cell-based
Activity calls are given as the source filed them.
Give your call using only these classes: active, inactive

Use these answered entries as a reference point.
CCCCC(=O)NC(c1ccccc1)c1ccc2cccnc2c1O (centres undefined)    active
CCOC(=O)Cc1csc(NC(=O)CSc2nnc(-c3ccncc3)o2)n1    inactive
O=C(Nc1nnc(-c2ccncc2)o1)c1ccc2ccccc2c1    inactive

With those in mind, consider the next compound.
[Q] Query: recorded result category for `O=C(Nc1nnc(-c2ccco2)o1)c1cccc(Cl)c1` in this test
[A] inactive
